Listed below: IC50 values for each entry.
# measurement.target: SARS-CoV-2 NSP13 helicase (Severe acute respiratory syndrome coronavirus 2, UniProt P0DTD1)
# assay.remarks: biochemical
# assay.setup: read-out: IC50 against NSP13 helicase activity; Table 1
measured.metric: IC50 (nM)

O=C(N/N=C/c1cc(O)c(O)cc1O)c1cc2ccccc2cc1O [Dyngo-4a, reference compound]: 630
O=C([O-])c1cc(=O)[nH]c(=O)[nH]1.O=C([O-])c1cc(=O)[nH]c(=O)[nH]1.[Zn+2] [Zinc Orotate]: 4120

====

# measurement.target: SARS-CoV-2 NSP13 helicase (Severe acute respiratory syndrome coronavirus 2, UniProt P0DTD1)
# assay.remarks: biochemical
# assay.setup: read-out: IC50 against NSP13 helicase activity
measured.metric: IC50 (µM)

O=C(O)CSc1cc(NS(=O)(=O)c2ccc(Br)cc2)c2ccccc2c1O [UMI-77, reference compound]: 4.38
CC(C)[C@H](NC(=O)CCCCCN1C(=O)C=CC1=O)C(=O)N[C@@H](CCCNC(N)=O)C(=O)Nc1ccc(COC(=O)Oc2ccc([N+](=O)[O-])cc2)cc1 [MC-Val-Cit-PABC-PNP]: 2.45
